tested on: Staphylococcus aureus ATCC 12600
# MIC values compiled below

Check out these entries, answers already filled in.
[
  {
    "molecule": "COC(=O)N/C=C/CCC(C)c1cc(O)c(C(=O)C(C)=Cc2sc(CCC(C)C)cc2C)c(=O)o1 (mixture of isomers)",
    "obs value": "0.2 µg/mL"
  },
  {
    "molecule": "CCOc1ccc(C=C(C)C(=O)c2c(O)cc(C(C)CC/C=C/NC(=O)OC)oc2=O)s1 (mixture of isomers)",
    "obs value": "10 µg/mL"
  },
  {
    "molecule": "COC(=O)N/C=C/CCC(C)c1cc(O)c(C(=O)C(C)=Cc2ccc(OCC(F)(F)F)s2)c(=O)o1 (mixture of isomers)",
    "obs value": "1 µg/mL"
  },
  {
    "molecule": "CCCCCc1ccc(C=C(C)C(=O)c2c(O)cc(C(C)CC/C=C/NC(=O)OC)oc2=O)cc1 (mixture of isomers)",
    "obs value": "2 µg/mL"
  },
  {
    "molecule": "CCCCCc1ccc(C=C(C)C(=O)c2c(O)cc(C(C)CC/C=C/NC(=O)OC)oc2=O)s1 (mixture of isomers)",
    "obs value": "0.3 µg/mL"
  }
]

Input: Please respond with reported MIC (system Staphylococcus aureus ATCC 12600) for CCc1ccc2cc(C=C(C)C(=O)c3c(O)cc(C(C)CC/C=C/NC(=O)OC)oc3=O)oc2c1 (mixture of isomers) .
Output: 8 µg/mL

Input: Provide measured MIC on Staphylococcus aureus ATCC 12600 for CCCCc1ccc(C=C(C)C(=O)c2c(O)cc(C(C)CCCCNC(=O)OC)oc2=O)s1 (mixture of isomers) please.
Output: 5 µg/mL

Input: Determine reported MIC for COC(=O)N/C=C/CCC(C)c1cc(O)c(C(=O)C(C)=Cc2ccc(CCC(C)(C)C)s2)c(=O)o1 (mixture of isomers) ; test system: Staphylococcus aureus ATCC 12600.
Output: 0.7 µg/mL

====

test system: Burkholderia pseudomallei Human/Blood/OH/US/1994; assay: microbe, parasite or virus in culture; assay type: cell-based; conditions: Burkholderia pseudomallei, read-out: MIC B. pseudomallei Human/Blood/OH
Could you mark each record YES if its MIC falls strictly under 10 µg/mL, and NO if it equals or exceeds it?

Use the examples below as a reference point.
[
  {
    "compound": "COC(=O)N/C=C/CCC(C)c1cc(O)c(C(=O)C(C)=Cc2ccc(OC(C)C)cc2C)c(=O)o1 (mixture of isomers) [APY130]",
    "class label": "NO"
  },
  {
    "compound": "COC(=O)N/C=C/CCC(C)c1cc(O)c(C(=O)C(C)=Cc2ccc(OCC3CCCC3)cc2)c(=O)o1 (mixture of isomers) [APY52]",
    "class label": "NO"
  },
  {
    "compound": "CCCCc1ccc2oc(C=C(C)C(=O)c3c(O)cc(C(C)CC/C=C/NC(=O)OC)oc3=O)cc2c1 (mixture of isomers) [APY25]",
    "class label": "YES"
  },
  {
    "compound": "CCCCCCc1csc(C=C(C)C(=O)c2c(O)cc(C(C)CC/C=C/NC(=O)OC)oc2=O)c1 (mixture of isomers) [APY18]",
    "class label": "YES"
  }
]

Input: Lab note: confirm whether the reported MIC for this compound is below 10 µg/mL, equality not counting. compound: COC(=O)N/C=C/CCC(C)c1cc(O)c(C(=O)C(C)=Cc2ccc(OCC(F)F)cc2)c(=O)o1 (mixture of isomers) [APY132]
Output: NO

Input: is_below(MIC, 10 µg/mL) for CCCCc1ccc2sc(C=C(C)C(=O)c3c(O)cc(C(C)CC/C=C/NC(=O)OC)oc3=O)cc2c1 (mixture of isomers) [APY26] ?
Output: NO

Input: API: query returns whether the compound falls strictly under 10 µg/mL in MIC. Query: CCCCCCc1ccc(C=C(C)C(=O)c2c(O)cc(C(C)CC/C=C/NC(=O)OC)oc2=O)o1 (mixture of isomers) [APY17]
Output: NO

Input: Is MIC strictly under 10 µg/mL for the entry CCCCc1cc(C)c(C=C(C)C(=O)c2c(O)cc(C(C)CC/C=C/NC(=O)OC)oc2=O)s1 (mixture of isomers) [APY75] ?
Output: YES

Input: Determine whether this compound shows MIC lower than 10 µg/mL (ties excluded): COC(=O)N/C=C/CCC(C)c1cc(O)c(C(=O)C(C)=Cc2ccc(CCC(F)(F)F)s2)c(=O)o1 (mixture of isomers) [APY61]
Output: NO

Input: Does this compound meet the criterion MIC < 10 µg/mL? COC(=O)N/C=C/CCC(C)c1cc(O)c(C(=O)C(C)=Cc2ccc(CCC(C)(C)C)s2)c(=O)o1 (mixture of isomers) [APY56]
Output: YES

Input: Take the compound COC(=O)N/C=C/CCC(C)c1cc(O)c(C(=O)C(C)=Cc2cnc(CCC(C)C)s2)c(=O)o1 (mixture of isomers) [APY137] and say whether its MIC is less than 10 µg/mL.
Output: NO

Input: Consider CCCCCc1ccc(C=C(C)C(=O)c2c(O)cc(C(C)CC/C=C/NC(=O)OC)oc2=O)cc1 (mixture of isomers) [APY72] . Does its MIC lie strictly below 10 µg/mL?
Output: NO

Input: Identify whether the compound COC(=O)N/C=C/CCC(C)c1cc(O)c(C(=O)C(C)=Cc2ccc(CC3CC3)s2)c(=O)o1 (mixture of isomers) [APY125] records MIC below 10 µg/mL.
Output: NO

Input: State whether 10 µg/mL exceeds MIC recorded for COC(=O)N/C=C/CCC(C)c1cc(O)c(C(=O)C(C)=Cc2ccc(OCCC(C)(C)C)cc2)c(=O)o1 (mixture of isomers) [APY48] .
Output: NO

Input: Problem: For the compound CCCOc1cccc(C=C(C)C(=O)c2c(O)cc(C(C)CC/C=C/NC(=O)OC)oc2=O)c1 (mixture of isomers) [APY43] , is MIC under 10 µg/mL?
Output: NO

Input: Determine whether this compound shows MIC lower than 10 µg/mL (ties excluded): COC(=O)N/C=C/CCC(C)c1cc(O)c(C(=O)C(C)=Cc2ccc(OC(C)C)cc2)c(=O)o1 (mixture of isomers) [APY66]
Output: NO

Input: Does this compound meet the criterion MIC < 10 µg/mL? CCCCCCc1coc(C=C(C)C(=O)c2c(O)cc(C(C)CC/C=C/NC(=O)OC)oc2=O)c1 (mixture of isomers) [APY19]
Output: YES

Input: Dear colleague, could you confirm whether MIC of C=CCCc1ccc(C=C(C)C(=O)c2c(O)cc(C(C)CC/C=C/NC(=O)OC)oc2=O)s1 (mixture of isomers) [APY28] falls below 10 µg/mL? Thanks.
Output: NO

Input: Would you kindly verify if MIC of COC(=O)N/C=C/CCC(C)c1cc(O)c(C(=O)C(C)=Cc2ccc(CCC(F)(F)F)cc2)c(=O)o1 (mixture of isomers) [APY74] is strictly less than 10 µg/mL?
Output: NO

Input: Please let me know if CCCOc1ccc2c(c1)cc(C=C(C)C(=O)c1c(O)cc(C(C)CC/C=C/NC(=O)OC)oc1=O)n2C (mixture of isomers) [APY121] shows MIC below 10 µg/mL.
Output: NO

Input: Quick check: does COC(=O)N/C=C/CCC(C)c1cc(O)c(C(=O)C(C)=Cc2ccc(CC(C)C)s2)c(=O)o1 (mixture of isomers) [APY60] have MIC under 10 µg/mL?
Output: NO

Input: Below 10 µg/mL on MIC? Entry COC(=O)N/C=C/CCC(C)c1cc(O)c(C(=O)C(C)=Cc2sc(CC(C)C)cc2Br)c(=O)o1 (mixture of isomers) [APY124]
Output: NO

Input: Check if MIC falls below 10 µg/mL for COC(=O)N/C=C/CCC(C)c1cc(O)c(C(=O)C(C)=Cc2cc3cc(OC(C)C)ccc3n2C)c(=O)o1 (mixture of isomers) [APY123] .
Output: NO

====

system: Staphylococcus aureus ATCC 12600
Simple rule here: MIC less than 2 µg/mL is t, otherwise f.

[
  {
    "molecule": "CCCOc1ccc2c(c1)cc(C=C(C)C(=O)c1c(O)cc(C(C)CC/C=C/NC(=O)OC)oc1=O)n2C (mixture of isomers) [APY121]",
    "class label": "f"
  },
  {
    "molecule": "COC(=O)N/C=C/CCC(C)c1cc(O)c(C(=O)C(C)=Cc2ccc(OCC(C)(C)C)cc2)c(=O)o1 (mixture of isomers) [APY55]",
    "class label": "f"
  },
  {
    "molecule": "CCCOc1ccc(C=C(C)C(=O)c2c(O)cc(C(C)CC/C=C/NC(=O)OC)oc2=O)cc1 (mixture of isomers) [APY40]",
    "class label": "t"
  },
  {
    "molecule": "COC(=O)N/C=C/CCC(C)c1cc(O)c(C(=O)C(C)=Cc2ccc(CCCC3CCCCC3)s2)c(=O)o1 (mixture of isomers) [APY32]",
    "class label": "f"
  },
  {
    "molecule": "COC(=O)N/C=C/CCCc1cc(O)c(C(=O)C(C)=Cc2ccc(CCCC(F)(F)F)s2)c(=O)o1 (mixture of isomers) [APY90]",
    "class label": "t"
  },
  {
    "molecule": "CCCOc1cccc(C=C(C)C(=O)c2c(O)cc(C(C)CC/C=C/NC(=O)OC)oc2=O)c1 (mixture of isomers) [APY43]",
    "class label": "f"
  }
]

Input: Is MIC of COC(=O)N/C=C/CCC(C)c1cc(O)c(C(=O)C(C)=Cc2ccc(OCC3CCCC3)cc2)c(=O)o1 (mixture of isomers) [APY52] strictly below 2 µg/mL?
Output: f

Input: Given CCCCc1ccc2sc(C=C(C)C(=O)c3c(O)cc(C(C)CC/C=C/NC(=O)OC)oc3=O)cc2c1 (mixture of isomers) [APY26] , is recorded MIC strictly lower than 2 µg/mL?
Output: f

Input: Given the entry CCCCc1ccc(C=C(C)C(=O)c2c(O)cc(C(C)CC/C=C/NC(=O)OC)oc2=O)c(C)c1 (mixture of isomers) [APY87] , would its reported MIC be below 2 µg/mL?
Output: t

Input: Hello, I'm reviewing records and need to know if MIC of CCCCCCc1csc(C=C(C)C(=O)c2c(O)cc(C(C)CC/C=C/NC(=O)OC)oc2=O)c1 (mixture of isomers) [APY18] is below 2 µg/mL. Could you check?
Output: f
